Species: Rattus norvegicus
assay.name: Open TG-GATES - Regimen: Daily Repeat
Type: toxicity, organism-based, Sprague-Dawley
Set-up: regimen Daily Repeat, gender Male, age 6 weeks
condition.description: in vivo, po, 100 mg/kg, 72 h, tissue Plasma, route gavage, dose level Low, time 3 day
I'd appreciate it if you could supply LDH values for the items below.
The figure you give is taken to be in IU/L; do not add the unit.

Hello, please tell me recorded LDH for this one: CCCCNC(=O)NS(=O)(=O)c1ccc(C)cc1 [TOLBUTAMIDE]
68.8

Determine its reported LDH: O=C(O)c1ccccc1Nc1ccccc1
82

Look up and state reported LDH for CC(=O)[C@@]1(O)CC[C@H]2[C@@H]3C=C(Cl)C4=CC(=O)CC[C@]4(C)[C@H]3CC[C@@]21C
171.4

Please give measured LDH of the following entry: CC(S)C(=O)NCC(=O)O (centres undefined)
165.2

----------
Species: Rattus norvegicus
assay.name: Open TG-GATES - Regimen: Single
Assay type: toxicity, organism-based, Sprague-Dawley
Design: regimen Single, gender Male, age 6 weeks
condition.description: in vivo, po, 0 mg/kg, 6 h, tissue Plasma, route gavage, dose level Control
observable: Ca (mg/dL)
// units = mg/dL; emit number, no label

Give me measured Ca, please, for this compound: COc1cc2ncnc(Nc3ccc(F)c(Cl)c3)c2cc1OCCCN1CCOCC1 [GEFITINIB]
10.6

Report Ca, nothing else, for this compound: CN(C)CCCN1c2ccccc2Sc2ccc(Cl)cc21 [CHLORPROMAZINE]
10.7

For the compound O=C(O)c1ccccc1Nc1ccccc1 [FENAMIC ACID] , report Ca.
11.1

Dear colleague, please send me the reported Ca for CCCCNC(=O)NS(=O)(=O)c1ccc(C)cc1 [TOLBUTAMIDE] when you can.
10.7

Quick one: give measured Ca for COc1ccc([C@@H]2Sc3ccccc3N(CCN(C)C)C(=O)[C@@H]2OC(C)=O)cc1 [DILTIAZEM]
10.8

Determine its reported Ca: CN(CCOc1ccc(CC2SC(=O)NC2=O)cc1)c1ccccn1.O=C(O)/C=C\C(=O)O (configuration not stated) [ROSIGLITAZONE MALEATE]
11.3

Answer with the recorded Ca for the compound listed here: CC(=O)[C@@]1(O)CC[C@H]2[C@@H]3C=C(Cl)C4=CC(=O)CC[C@]4(C)[C@H]3CC[C@@]21C [CHLORMADINONE]
10.5

Tell us which Ca value is on record for CN(C/C=C/C#CC(C)(C)C)Cc1cccc2ccccc12 [TERBINAFINE]
10.8

Tell me Ca reported for O=c1ccc2ccccc2o1 [COUMARIN]
10.4

Tell us which Ca value is on record for CCO [ALCOHOL]
10.4

Give me measured Ca, please, for this compound: Nc1ccc(Cc2ccc(N)cc2)cc1
10.8

Input CC(S)C(=O)NCC(=O)O (configuration not stated) [TIOPRONIN] , output reported Ca.
10.5

----------
Organism: Rattus norvegicus
assay.name: Open TG-GATES - Regimen: Single
Assay type: toxicity, organism-based, Sprague-Dawley
Design: regimen Single, gender Male, age 6 weeks
condition.description: in vivo, po, 0 mg/kg, 9 h, tissue Blood, route gavage, dose level Control
observable: Hb (g/dL)
Provide the reading as a plain figure in g/dL.

Determine from records and report Hb for NS(=O)(=O)c1cc(C(=O)O)c(NCc2ccco2)cc1Cl [FUROSEMIDE]
13

Tell me Hb reported for CC(=O)[C@@]1(O)CC[C@H]2[C@@H]3C=C(Cl)C4=CC(=O)CC[C@]4(C)[C@H]3CC[C@@]21C
12.9

Provide measured Hb value, entry: CCO
13.5

Quote Hb reported for CCN(CC)C(=S)SSC(=S)N(CC)CC please.
12.9

Report measured Hb; entry is CC(S)C(=O)NCC(=O)O (stereo not drawn)
12.7

Annotate the compound CCCCNC(=O)NS(=O)(=O)c1ccc(C)cc1 [TOLBUTAMIDE] with its measured Hb.
13.3

Assign Hb to the following record: O=C(O)c1ccccc1Nc1ccccc1
13.3

# return recorded Hb for input CN(C)CCCN1c2ccccc2Sc2ccc(Cl)cc21
13.2

For the compound CN(CCOc1ccc(CC2SC(=O)NC2=O)cc1)c1ccccn1.O=C(O)/C=C\C(=O)O (stereo not drawn) [ROSIGLITAZONE MALEATE] , give its reported Hb.
12.8

Quick one: give measured Hb for O=c1ccc2ccccc2o1
13.1

Check the records and state Hb for CN(C/C=C/C#CC(C)(C)C)Cc1cccc2ccccc12
13.4

Input Nc1ccc(Cc2ccc(N)cc2)cc1 , output reported Hb.
12.7

State its Hb for this compound: COc1ccc([C@@H]2Sc3ccccc3N(CCN(C)C)C(=O)[C@@H]2OC(C)=O)cc1
13.3
